So I've got a bunch of molecules here, and I need their pEC50 values.
Tested on: recombinant NL4-3 virus
Assay: HIV cell culture assay
Assay type: cell-based
Details: Human immunodeficiency virus 1, NL43, MT2
Friendly reminder that pEC50 comes from taking -log10 of the concentration in mol/L.

Per the record, C=C(C)[C@@H]1CC[C@]2(CO)CC[C@]3(C)[C@H](CC[C@@H]4[C@@]5(C)CCN(C(=O)c6ccc(C(=O)O)cc6)C(C)(C)C5CC[C@]43C)[C@@H]12 (some centres unmarked) has pEC50 of 6.49

Per the record, C=C(C)[C@@H]1CC[C@]2(CO)CC[C@]3(C)[C@H](CC[C@@H]4[C@@]5(C)CCCN(C(=O)CC(=O)O)C(C)(C)C5CC[C@]43C)[C@@H]12 (some centres unmarked) has pEC50 of 5.64

Per the record, C=C(C)[C@@H]1CC[C@]2(CN(C)CCCN3CCS(=O)(=O)CC3)CC[C@]3(C)[C@H](CC[C@@H]4[C@@]5(C)CCN(CC(=O)NC(C)(C)C(=O)O)C(C)(C)[C@@H]5CC[C@]43C)[C@@H]12 has pEC50 of 5.89
